test: Solubility in formulation solvent and in water; assay type: physicochemical; settings: organic solvent or mixture; substantially anhydrous solvent of the formulations of the invention
observed.property: solubility

## Task I'd like to know its solubility. The molecule in question is Nc1ncn([C@H]2CC(OP(=O)(O)OC[C@H]3O[C@@H](n4cnc5c(=O)[nH]c(N)nc54)CC3O)[C@@H](CO)O2)c(=O)n1 (stereo in doubt)
## Result 130 to 150 mg/mL
